Target: ΔF508-CFTR stably expressed in NIH3T3 cells (Homo sapiens, UniProt P13569, DEL508-508)
Construct: expressed in transfected cells
Sequence (P13569 with tags, fused parts or gaps DEL508-508): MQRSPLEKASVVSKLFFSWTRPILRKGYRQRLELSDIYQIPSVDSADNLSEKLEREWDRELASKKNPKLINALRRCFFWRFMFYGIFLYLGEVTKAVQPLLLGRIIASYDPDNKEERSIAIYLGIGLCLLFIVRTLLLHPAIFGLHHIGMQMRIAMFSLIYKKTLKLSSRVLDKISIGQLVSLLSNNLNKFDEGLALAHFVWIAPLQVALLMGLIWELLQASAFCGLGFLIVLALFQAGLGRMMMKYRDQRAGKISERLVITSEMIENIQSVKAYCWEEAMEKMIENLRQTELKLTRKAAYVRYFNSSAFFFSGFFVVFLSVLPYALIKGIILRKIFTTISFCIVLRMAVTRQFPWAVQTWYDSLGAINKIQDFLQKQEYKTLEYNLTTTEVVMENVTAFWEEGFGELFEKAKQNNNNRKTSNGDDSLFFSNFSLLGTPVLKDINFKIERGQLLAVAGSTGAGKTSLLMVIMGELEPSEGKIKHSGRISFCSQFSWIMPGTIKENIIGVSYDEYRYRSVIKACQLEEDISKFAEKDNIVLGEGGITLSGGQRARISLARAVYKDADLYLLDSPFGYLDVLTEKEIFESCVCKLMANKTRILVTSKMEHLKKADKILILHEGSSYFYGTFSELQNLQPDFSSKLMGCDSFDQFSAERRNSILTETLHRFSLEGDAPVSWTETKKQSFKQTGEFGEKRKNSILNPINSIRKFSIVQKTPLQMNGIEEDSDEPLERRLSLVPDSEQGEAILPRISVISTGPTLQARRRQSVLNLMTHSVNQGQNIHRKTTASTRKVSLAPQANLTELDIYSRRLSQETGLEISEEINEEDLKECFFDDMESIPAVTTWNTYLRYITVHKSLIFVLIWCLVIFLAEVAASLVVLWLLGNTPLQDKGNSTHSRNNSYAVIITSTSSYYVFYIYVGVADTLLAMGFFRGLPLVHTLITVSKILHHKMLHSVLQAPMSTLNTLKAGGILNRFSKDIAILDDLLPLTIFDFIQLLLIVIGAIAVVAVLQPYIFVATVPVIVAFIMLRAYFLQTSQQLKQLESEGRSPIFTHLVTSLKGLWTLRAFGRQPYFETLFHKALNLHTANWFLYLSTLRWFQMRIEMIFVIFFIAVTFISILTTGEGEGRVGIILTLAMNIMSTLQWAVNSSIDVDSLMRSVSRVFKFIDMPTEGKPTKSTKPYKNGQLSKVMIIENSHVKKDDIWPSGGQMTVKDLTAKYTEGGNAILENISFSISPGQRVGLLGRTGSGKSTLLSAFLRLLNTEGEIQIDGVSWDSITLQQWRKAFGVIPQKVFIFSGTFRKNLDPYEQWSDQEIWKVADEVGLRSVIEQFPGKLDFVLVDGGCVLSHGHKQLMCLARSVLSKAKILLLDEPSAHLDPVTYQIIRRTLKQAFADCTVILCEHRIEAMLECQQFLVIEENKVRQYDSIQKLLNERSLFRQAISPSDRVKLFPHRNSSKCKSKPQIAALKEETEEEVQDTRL
Assay: Membrane potential optical (FRET/VIPR) assay for ΔF508-CFTR potentiation
Assay type: cell-based
Conditions: NIH3T3, read-out: % Efficacy (relative modulating efficacy in comparison with genistein), normalized to peak genistein response
Measure: Emax

Cc1ccc(O)c(-c2cc(-c3ccccc3[N+](=O)[O-])[nH]n2)c1: > 75%
COc1cccc(-c2cc(-c3cc(C)ccc3O)[nH]n2)c1: 35 to 75%
COc1ccc(O)c(-c2cc(-c3ccccc3)[nH]n2)c1: 35 to 75%
Oc1cc(F)ccc1-c1cc(-c2ccccc2)[nH]n1: 35 to 75%
Cc1ccc(O)c(-c2cc(-c3c(Cl)cccc3Cl)n[nH]2)c1: 35 to 75%

Exam item: Reported Emax for ΔF508-CFTR stably expressed in NIH3T3 cells (Homo sapiens, UniProt P13569, DEL508-508), given O=[N+]([O-])c1ccccc1-c1cc(-c2cc(F)ccc2O)[nH]n1 ?
Marked response: > 75%

---

Entries and their measured Emax follow.
Biological target: ΔF508-CFTR stably expressed in NIH3T3 cells (Homo sapiens, UniProt P13569, DEL508-508)
Construct: expressed in transfected cells
Experiment: Membrane potential optical (FRET/VIPR) assay for ΔF508-CFTR potentiation
Assay type: cell-based
Conditions: NIH3T3, read-out: % Efficacy (relative modulating efficacy in comparison with genistein), normalized to peak genistein response

Previously resolved entries follow.
FC(F)(F)Oc1ccc(-c2cc(-c3ccccc3)n[nH]2)cc1: 35 to 75%
Cc1ccc(O)c(-c2cc(-c3ccc(OCc4ccccc4)cc3)n[nH]2)c1: 35 to 75%
Cc1ccc(-c2cc(-c3ccc(F)cc3)[nH]n2)c(O)c1: < 35%
Fc1ccccc1-c1cc(-c2ccccc2)n[nH]1: 35 to 75%
O=[N+]([O-])c1ccc(-c2cc(-c3cc(C(F)(F)F)ccc3O)[nH]n2)cc1: 35 to 75%

Exam item: Given the compound Oc1ccccc1-c1cc(-c2ccc(C(F)(F)F)cc2F)n[nH]1 , what is its reported Emax?
Marked response: 35 to 75%

Exam item: Given the compound Cc1ccc(O)c(-c2cc(-c3ccc(-c4ccc(S(C)(=O)=O)cc4)o3)n[nH]2)c1 , what is its reported Emax?
Marked response: 35 to 75%

Exam item: Given the compound COc1ccc(O)c(-c2cc(-c3ccccc3C)[nH]n2)c1 , what is its reported Emax?
Marked response: 35 to 75%

Exam item: Given the compound Cc1ccc(O)c(-c2cc(-c3ccccc3Oc3ccccc3)n[nH]2)c1 , what is its reported Emax?
Marked response: 35 to 75%

Exam item: Given the compound Cc1ccc(O)c(-c2cc(-c3ccc(F)c(Cl)c3)n[nH]2)c1 , what is its reported Emax?
Marked response: 35 to 75%

---

Target: ΔF508-CFTR stably expressed in NIH3T3 cells (Homo sapiens, UniProt P13569, DEL508-508)
Construct: expressed in transfected cells
Assay: Membrane potential optical (FRET/VIPR) assay for ΔF508-CFTR potentiation
Format: cell-based
Settings: NIH3T3, read-out: % Efficacy (relative modulating efficacy in comparison with genistein), normalized to peak genistein response
Measure: Emax

Previously resolved entries follow.
COc1cccc(O)c1-c1cc(-c2ccccc2)n[nH]1: 35 to 75%
COc1ccccc1-c1cc(-c2cc(C)ccc2O)[nH]n1: 35 to 75%
Cc1ccc(O)c(-c2cc(-c3cc(C(F)(F)F)nn3-c3ccc([N+](=O)[O-])cc3)n[nH]2)c1: 35 to 75%
O=[N+]([O-])c1ccccc1-c1cc(-c2cc(Cl)ccc2O)n[nH]1: > 75%
Oc1ccc(-c2nnn[nH]2)cc1-c1cc(-c2ccccc2)n[nH]1: 35 to 75%

Exam item: Given the molecule Oc1ccc(Cl)cc1-c1cc(-c2ccc(F)cc2)[nH]n1 , what is its reported Emax?
Marked response: 35 to 75%

Exam item: Given the molecule Cc1ccc(O)c(-c2cc(-c3cccs3)n[nH]2)c1 , what is its reported Emax?
Marked response: > 75%

Exam item: Given the molecule Cc1cc(C)c(-c2cc(-c3cc(C)ccc3O)[nH]n2)c(C)c1 , what is its reported Emax?
Marked response: 35 to 75%

Exam item: Given the molecule Cc1ccc(O)c(-c2cc(-c3ccc(C(F)(F)F)c(C)c3)n[nH]2)c1 , what is its reported Emax?
Marked response: 35 to 75%

Exam item: Given the molecule Oc1ccccc1-c1cc(-c2cccc(F)c2)[nH]n1 , what is its reported Emax?
Marked response: 35 to 75%

Exam item: Given the molecule Cc1ccc(-c2cc(-c3ccccc3Cl)[nH]n2)c(O)c1 , what is its reported Emax?
Marked response: 35 to 75%

Exam item: Given the molecule Fc1ccccc1-c1cc(-c2ccc(OC(F)(F)F)cc2)[nH]n1 , what is its reported Emax?
Marked response: 35 to 75%

Exam item: Given the molecule Cc1ccc(O)c(-c2cc(-c3cccnc3)n[nH]2)c1 , what is its reported Emax?
Marked response: 35 to 75%

Exam item: Given the molecule Cc1ccc(O)c(-c2cc(-c3ccc(F)c(F)c3)n[nH]2)c1 , what is its reported Emax?
Marked response: 35 to 75%

Exam item: Given the molecule Oc1ccccc1-c1cc(-c2c(F)cccc2F)n[nH]1 , what is its reported Emax?
Marked response: 35 to 75%

Exam item: Given the molecule Cc1ccc(O)c(-c2cc(-c3ccc(F)cc3)[nH]n2)c1 , what is its reported Emax?
Marked response: 35 to 75%

Exam item: Given the molecule CCOc1ccccc1-c1cc(-c2cc(C)ccc2O)[nH]n1 , what is its reported Emax?
Marked response: 35 to 75%

Exam item: Given the molecule Cc1ccc(O)c(-c2cc(C3CCCCC3)n[nH]2)c1 , what is its reported Emax?
Marked response: 35 to 75%

Exam item: Given the molecule COc1ccc(O)c(-c2cc(-c3ccccc3Cl)[nH]n2)c1 , what is its reported Emax?
Marked response: 35 to 75%

Exam item: Given the molecule Cc1ccccc1-c1cc(-c2ccccc2O)n[nH]1 , what is its reported Emax?
Marked response: 35 to 75%

Exam item: Given the molecule COc1ccc(-c2cc(-c3ccccc3O)n[nH]2)cc1 , what is its reported Emax?
Marked response: 35 to 75%

Exam item: Given the molecule Cc1ccc(O)c(-c2cc(-c3cccc(C(F)(F)F)c3C)n[nH]2)c1 , what is its reported Emax?
Marked response: 35 to 75%

Exam item: Given the molecule CCOc1ncccc1-c1cc(-c2ccccc2O)[nH]n1 , what is its reported Emax?
Marked response: 35 to 75%

Exam item: Given the molecule Oc1ccc(F)cc1-c1cc(-c2ccccc2C(F)(F)F)[nH]n1 , what is its reported Emax?
Marked response: > 75%

Exam item: Given the molecule Cc1ccc(O)c(-c2cc(-c3ccccc3-c3ccncc3)n[nH]2)c1 , what is its reported Emax?
Marked response: 35 to 75%

Exam item: Given the molecule Oc1ccc(Cl)cc1-c1cc(-c2ccccc2)[nH]n1 , what is its reported Emax?
Marked response: 35 to 75%
